molecular target: PfCRT^Dd2 (Plasmodium falciparum, UniProt Q9N623, A220S/I356T/K76T/M74I/N326S/N75E/Q271E/R371I); experiment: cell-based; format: cell-based; details: [test solute]i = 45 mM (intracellular; 30 mM for some solutes due to solubility); PfCRTDd2 oocytes; normalised to oocyte type control
Sequence (Q9N623 whole entry A220S/I356T/K76T/M74I/N326S/N75E/Q271E/R371I): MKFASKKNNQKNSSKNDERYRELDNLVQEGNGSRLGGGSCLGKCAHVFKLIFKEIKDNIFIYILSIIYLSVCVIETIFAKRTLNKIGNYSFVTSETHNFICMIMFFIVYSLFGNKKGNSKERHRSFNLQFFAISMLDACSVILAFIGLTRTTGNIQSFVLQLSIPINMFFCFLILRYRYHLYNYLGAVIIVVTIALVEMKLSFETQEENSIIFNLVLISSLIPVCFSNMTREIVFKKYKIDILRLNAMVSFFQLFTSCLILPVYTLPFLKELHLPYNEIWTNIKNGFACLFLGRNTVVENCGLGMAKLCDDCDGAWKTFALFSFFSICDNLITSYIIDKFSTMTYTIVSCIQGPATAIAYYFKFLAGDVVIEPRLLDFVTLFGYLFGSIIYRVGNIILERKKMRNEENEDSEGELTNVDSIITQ
measure: PfCRT-mediated [3H]CQ transport, trans-stimulation (% PfCRTDd2 control)

| substance | result |
| --- | --- |
| HVDDMPN [HN-7] | 98 ± 3.5 % PfCRTDd2 control |
| HVDPEN [HN-6] | 113 ± 1.1 % PfCRTDd2 control |
| FPHFDLS [FS-7] | 98 ± 4.1 % PfCRTDd2 control |
| LSFPTTK [LK-7] | 95 ± 3.3 % PfCRTDd2 control |
| HVDPENF [HF-7] | 112 ± 1.7 % PfCRTDd2 control |
| DTSLKPIS [DS-8] | 112 ± 1.2 % PfCRTDd2 control |
| HVDDMP [HP-6] | 112 ± 1.1 % PfCRTDd2 control |
| LSDLHAHK [LK-8] | 97 ± 3.1 % PfCRTDd2 control |
| DPENFR [DR-6] | 112 ± 4.3 % PfCRTDd2 control |
| LHVDPENF [LF-8] | 98 ± 2.3 % PfCRTDd2 control |
| VVYPWTQR [VR-8] | 95 ± 1.5 % PfCRTDd2 control |
| EFTPPVQ [EQ-7] | 112 ± 3.2 % PfCRTDd2 control |
| SHCLLVT [ST-7] | 113 ± 2.0 % PfCRTDd2 control |
| AEALERMF [AF-8] | 96 ± 4.3 % PfCRTDd2 control |
| FSDGLA [FA-6] | 98 ± 4.2 % PfCRTDd2 control |
| PHFDLS [PS-6] | 95 ± 4.6 % PfCRTDd2 control |
| VHLTPEEK [VK-8] | 98 ± 2.3 % PfCRTDd2 control |
| DLHAHKLR [DR-8] | 110 ± 3.7 % PfCRTDd2 control |
| DMPNALS [DS-7, host-derived peptide upstream of PL-4] | 112 ± 3.5 % PfCRTDd2 control |
| HVDPENFRL [HL-9] | 98 ± 3.3 % PfCRTDd2 control |
| KEFTPPVQA [KA-9] | 98 ± 1.7 % PfCRTDd2 control |
| EFTPPVQA [EA-8] | 98 ± 1.9 % PfCRTDd2 control |
| VDEVGG [VG-6] | 112 ± 0.9 % PfCRTDd2 control |
| DLDDALDK [DK-8] | 95 ± 4.1 % PfCRTDd2 control |
| HAGEYG [HG-6] | 98 ± 2.5 % PfCRTDd2 control |
| VDPVNFK [VK-7] | 98 ± 2.2 % PfCRTDd2 control |
| VLSPAD [VD-6] | 98 ± 3.3 % PfCRTDd2 control |
| HVDDMPNA [HA-8] | 96 ± 2.1 % PfCRTDd2 control |
